Test system: human peripheral blood mononuclear cells (PBMCs)
method-description: Cell viability (necrotic changes), calcein-AM/propidium iodide staining, flow cytometry
Assay type: cell-based
study-conditions: PBMC; human PBMCs, 24 h incubation; unit mM printed in b27 only
Consider the following compounds; for each one, report its IC50.

compound | tested-target | IC50
O=C(O)CNCP(=O)(O)O [Glyphosate, N-phosphonomethylglycine, reference compound] | human peripheral blood mononuclear cells (PBMCs) | > 10 mM

For the 5 compounds below, give their IC50 values.
1. O=C(O)CN(CC(=O)O)CP(=O)(O)O [PMIDA, N-(phosphonomethyl)iminodiacetic acid]
2. NCP(=O)(O)O [AMPA, aminomethylphosphonic acid]
3. O=P(O)(O)CNCP(=O)(O)O [Bis-(phosphonomethyl)amine, bis-(phosphonomethyl)amine]
4. CN(CC(=O)O)CP(=O)(O)O [N-methylglyphosate]
5. O=P(O)(O)CO [Hydroxy-methylphosphonic acid, hydroxymethylphosphonic acid]

1: 7.9 mM; 2: > 10 mM; 3: 8.7 mM; 4: > 10 mM; 5: > 10 mM

###

System: human peripheral blood mononuclear cells (PBMCs)
method-description: Measurement of cell morphology: size (FSC-A) and granularity (SSC-A) by flow cytometry
Assay type: cell-based
study-conditions: Homo sapiens, PBMC; 0.25 mM, 4 h; read-out: FSC-A (percent of control)
attribute-measured: activity at 250 µM
Could you write the number and then its unit?

These solved cases illustrate the format of a correct answer.
compound | tested-target | activity at 250 µM
O=C(O)CNCP(=O)(O)O [Glyphosate, N-phosphonomethylglycine, reference compound] | human peripheral blood mononuclear cells (PBMCs) | 102%
O=C(O)CN(CC(=O)O)CP(=O)(O)O | human peripheral blood mononuclear cells (PBMCs) | 100%
O=P(O)(O)CNCP(=O)(O)O | human peripheral blood mononuclear cells (PBMCs) | 100%

For the 3 compounds below, give their activity at 250 µM values.
1. CN(CC(=O)O)CP(=O)(O)O [N-methylglyphosate]
2. NCP(=O)(O)O
3. O=P(O)(O)CO [Hydroxy-methylphosphonic acid, hydroxymethylphosphonic acid]

101%
101%
101%

###

Consider the following compounds; for each one, report its activity at 100 µM.
System: human peripheral blood mononuclear cells (PBMCs)
method-description: Measurement of cell morphology: size (FSC-A) and granularity (SSC-A) by flow cytometry
Format: cell-based
study-conditions: Homo sapiens, PBMC; 0.1 mM, 4 h; read-out: SSC-A (percent of control)
One number for each entry, in %.

These solved cases illustrate the format of a correct answer.
compound | unit-text | value-reported
O=P(O)(O)CNCP(=O)(O)O [Bis-(phosphonomethyl)amine, bis-(phosphonomethyl)amine] | % | 100
NCP(=O)(O)O [AMPA, aminomethylphosphonic acid] | % | 101
O=C(O)CN(CC(=O)O)CP(=O)(O)O [PMIDA, N-(phosphonomethyl)iminodiacetic acid] | % | 99.2
O=C(O)CNCP(=O)(O)O [Glyphosate, N-phosphonomethylglycine, reference compound] | % | 101
CN(CC(=O)O)CP(=O)(O)O [N-methylglyphosate] | % | 102

We next turn to a different compound, shown below.
Query: activity at 100 µM; subject: O=P(O)(O)CO [Hydroxy-methylphosphonic acid, hydroxymethylphosphonic acid]
99.4

###

Test system: human peripheral blood mononuclear cells (PBMCs)
method-description: Measurement of cell morphology: size (FSC-A) and granularity (SSC-A) by flow cytometry
Assay type: cell-based
study-conditions: Homo sapiens, PBMC; 0.01 mM, 4 h; read-out: SSC-A (percent of control)
Consider the following compounds; for each one, report its activity at 10 µM.
Numbers only, in %.

These solved cases illustrate the format of a correct answer.
compound | activity at 10 µM, %
O=C(O)CNCP(=O)(O)O [Glyphosate, N-phosphonomethylglycine, reference compound] | 99.2
O=P(O)(O)CO [Hydroxy-methylphosphonic acid, hydroxymethylphosphonic acid] | 96.8
NCP(=O)(O)O [AMPA, aminomethylphosphonic acid] | 101
O=C(O)CN(CC(=O)O)CP(=O)(O)O [PMIDA, N-(phosphonomethyl)iminodiacetic acid] | 97.5
CN(CC(=O)O)CP(=O)(O)O [N-methylglyphosate] | 101

Query: activity at 10 µM; subject: O=P(O)(O)CNCP(=O)(O)O [Bis-(phosphonomethyl)amine, bis-(phosphonomethyl)amine]
98.4
